molecular target: c-kit kinase enzyme (Homo sapiens, UniProt P10721); construct: (catalytic domain, N-terminal GST tagged, unphosphorylated); assay: C-kit Homogeneous Time Resolved Fluorescent (HTRF) kinase assay; format: biochemical; details: c-kit catalytic domain, biotinylated Her-2 peptide substrate, ATP; read-out: HTRF Fret enzyme assay data
Sequence (P10721 589-937 limits assumed): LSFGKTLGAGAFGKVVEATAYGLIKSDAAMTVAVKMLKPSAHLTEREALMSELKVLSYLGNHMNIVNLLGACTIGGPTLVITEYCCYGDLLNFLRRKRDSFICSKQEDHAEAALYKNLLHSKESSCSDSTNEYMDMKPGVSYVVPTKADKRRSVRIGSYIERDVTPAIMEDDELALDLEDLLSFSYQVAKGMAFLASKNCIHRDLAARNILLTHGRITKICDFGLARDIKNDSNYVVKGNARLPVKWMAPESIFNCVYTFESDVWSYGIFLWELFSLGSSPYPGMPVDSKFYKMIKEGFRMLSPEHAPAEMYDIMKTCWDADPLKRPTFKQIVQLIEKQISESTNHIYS

{"given-smiles": "COc1ccc(-n2ccc(C)c(-c3ccc4nc(N)ncc4c3)c2=O)cc1", "IC50 / nM": 17}
{"given-smiles": "Cc1ccn(-c2ccc(-n3cccn3)cc2)c(=O)c1-c1ccc2nc(N)ncc2c1", "IC50 / nM": 10}
{"given-smiles": "CC(=O)c1ccc(-n2ccc(C)c(-c3ccc4nc(N)ncc4c3)c2=O)cc1", "IC50 / nM": 20}
{"given-smiles": "Cc1ccn(-c2ccc(N3CCOCC3)cc2)c(=O)c1-c1ccc2nc(N)ncc2c1", "IC50 / nM": 13}
{"given-smiles": "Cc1ccn(-c2ccc(Cl)c(F)c2)c(=O)c1-c1ccc2nc(N)ncc2c1", "IC50 / nM": 59.7}
{"given-smiles": "CCOC(=O)c1ccc(-n2ccc(C)c(-c3ccc4nc(N)ncc4c3)c2=O)cc1", "IC50 / nM": 17}
{"given-smiles": "Cc1cc(-n2ccc(C)c(-c3ccc4nc(N)ncc4c3)c2=O)ccc1F", "IC50 / nM": 14}
{"given-smiles": "Cc1ccc(-n2ccc(C)c(-c3ccc4nc(N)ncc4c3)c2=O)cc1F", "IC50 / nM": 40.1}
{"given-smiles": "COc1cccc(-n2ccc(C)c(-c3ccc4nc(N)ncc4c3)c2=O)c1", "IC50 / nM": 65.3}
{"given-smiles": "Cc1ccn(-c2ccc(Cl)cc2)c(=O)c1-c1ccc2nc(N)ncc2c1", "IC50 / nM": 20}
